Biological target: Growth factor receptor-bound protein 2 (Homo sapiens, UniProt P62993)
Sequence (P62993 whole entry, looked up, the tested form may be a part): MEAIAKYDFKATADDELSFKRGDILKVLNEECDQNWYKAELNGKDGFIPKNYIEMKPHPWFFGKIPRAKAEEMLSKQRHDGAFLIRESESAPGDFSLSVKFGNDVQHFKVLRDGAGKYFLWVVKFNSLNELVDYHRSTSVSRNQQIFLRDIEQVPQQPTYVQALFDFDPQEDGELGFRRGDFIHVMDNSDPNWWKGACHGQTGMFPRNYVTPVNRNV
Test: Binding affinity to Grb2 SH2 domain (unknown origin) by isothermal titration calorimetry
Square brackets hold non-standard residues; d marks the D form. Peptide text beside a SMILES is read from it. * marks the point of attachment. pY = N[C@@H](Cc1ccc(OP(=O)(O)O)cc1)C(=O)O; Hydrocinnamoyl = O=C(CCc1ccccc1)*; Ac6c = NC1(C(=O)O)CCCCC1; Cbz = O=C(OCc1ccccc1)*
Exercise: for every item that follows, state its recorded Ka.
Please provide the amount together with its unit, number first.

Exercise: Any idea what Ka was measured for NC(=O)C[C@H](NC(=O)C1(NC(=O)[C@H](Cc2ccc(OP(=O)(O)O)cc2)NC(=O)CCc2ccccc2)CCCCC1)C(N)=O (Hydrocinnamoyl-[pY]-[Ac6c]-Asn-NH2) ?
Solution: 23.4 ×10⁶ /M

Exercise: Any idea what Ka was measured for NC(=O)C[C@H](NC(=O)C1(NC(=O)[C@H](Cc2ccc(OP(=O)(O)O)cc2)NC(=O)OCc2ccccc2)CCCCC1)C(N)=O (Cbz-[pY]-[Ac6c]-Asn-NH2) ?
Solution: 6.5 ×10⁶ /M

Exercise: Any idea what Ka was measured for CC(=O)N[C@@H](Cc1ccc(OP(=O)(O)O)cc1)C(=O)NC1(C(=O)N[C@@H](CC(N)=O)C(N)=O)CCCCC1 (HELM PEPTIDE1{[ac].[O=C([C@H](Cc1ccc(OP(=O)(O)O)cc1)N[*:1])[*:2]].[O=C(C1(N[*:1])CCCCC1)[*:2]].N.[am]}$$$$V2.0) ?
Solution: 7 ×10⁶ /M

Exercise: Any idea what Ka was measured for "Cn1cc(CCC(=O)N[C@@H](Cc2ccc(OP(=O)(O)O)cc2)C(=O)NC2(C(=O)N[C@@H](CC(N)=O)C(N)=O)CCCCC2)c2ccccc21" ?
Solution: 11.4 ×10⁶ /M

Exercise: Any idea what Ka was measured for "NC(=O)C[C@H](NC(=O)C1(NC(=O)[C@H](Cc2ccc(OP(=O)(O)O)cc2)NC(=O)CCC2CCCCC2)CCCCC1)C(N)=O" ?
Solution: 28.8 ×10⁶ /M

Exercise: Any idea what Ka was measured for "NC(=O)C[C@H](NC(=O)C1(NC(=O)[C@H](Cc2ccc(OP(=O)(O)O)cc2)NC(=O)OCc2cccc(N)c2)CCCCC1)C(N)=O" ?
Solution: 8.8 ×10⁶ /M
